Measured MIC by item
Tested on: Staphylococcus aureus
Number in µg/mL, nothing else.

Please review the following examples before continuing.
* CC(=O)NC[C@H]1CN(c2ccc(-c3cccc(N(C)C)c3)cc2)C(=O)O1 | 8
* CC(=O)NC[C@H]1CN(c2ccc(-c3ccc(C(C)=NN4CCN(C)CC4)cc3)cc2)C(=O)O1 | 2
* CC(=O)NC[C@H]1CN(c2ccc(-c3ccc[n+]([O-])c3)cc2)C(=O)O1 | 2
* CC(=O)NC[C@H]1CN(c2ccc(-c3ccno3)cc2)C(=O)O1 | 1
* CC(=O)NC[C@H]1CN(c2ccc(-c3ccc(-c4nn[nH]n4)cc3)cc2)C(=O)O1 | 64
* CCCCCN(CCCCC)Cc1ccc(-c2ccc(N3C[C@H](CNC(C)=O)OC3=O)cc2)cc1 | 0.5
* CC(=O)NC[C@H]1CN(c2ccc(-c3ccc(OCCN(C)C)cc3)cc2)C(=O)O1 | 0.5
* CC(=O)NC[C@H]1CN(c2ccc(-c3ccc(C(=O)CC(C)(C)C(=O)O)cc3)cc2)C(=O)O1 | 0.5
* CCCN(CCC)Cc1ccc(-c2ccc(N3C[C@H](CNC(C)=O)OC3=O)cc2)cc1 | 4
* CC(=O)NC[C@H]1CN(c2ccc(-c3ccc(C(C)O)cc3)cc2)C(=O)O1 (single isomer, unassigned) | 0.5

Please turn your attention to the following entry.
Data request, read-out MIC, for `CC(=O)NC[C@H]1CN(c2ccc(-c3ccc(C(=O)CCN4CCN(C)CC4)cc3)cc2)C(=O)O1` 1

###

Measured MIC by item
Tested on: Staphylococcus aureus
Number in µg/mL, nothing else.

Please review the following examples before continuing.
- CCc1cccc(-c2ccc(N3C[C@H](CNC(C)=O)OC3=O)cc2)c1: 2
- CC(=O)NC[C@H]1CN(c2ccc(-c3ccc(C(=O)C(C)CN4CCN(C)CC4)cc3)cc2)C(=O)O1 (stereo partly shown): 2
- CC(=O)NC[C@H]1CN(c2ccc(-c3cnco3)cc2)C(=O)O1: 1
- CC(=O)NC[C@H]1CN(c2ccc(-c3cccc(N)c3)cc2)C(=O)O1: 0.5
- CC(=O)NC[C@H]1CN(c2ccc(-c3ccc(C(C)NN4CCN(C)CC4)cc3)cc2)C(=O)O1 (single isomer, unassigned): 1
- CC(=O)NC[C@H]1CN(c2ccc(-c3ccccc3)cc2)C(=O)O1: 0.5
- CCCCNCc1ccc(-c2ccc(N3C[C@H](CNC(C)=O)OC3=O)cc2)cc1: 0.5
- CC(=O)NC[C@H]1CN(c2ccc(-c3ccc(C(O)CCN(C)C)cc3)cc2)C(=O)O1 (single isomer, unassigned): 1
- CC(=O)NC[C@H]1CN(c2ccc(-c3ccc(C(O)CCN4CCN(C)CC4)cc3)cc2)C(=O)O1 (stereo partly shown): 2
- CC(=O)NCC1CN(c2ccc(-c3ccc(N(C)C)cc3)cc2)C(=O)O1 (stereo not shown): 16

Give recorded MIC with Staphylococcus aureus for the following compound: `CC(=O)NC[C@H]1CN(c2ccc(-c3ccccn3)cc2)C(=O)O1` 2

Give recorded MIC with Staphylococcus aureus for the following compound: `CC(=O)NC[C@H]1CN(c2ccc(-c3ccc(CN(CCO)CCO)cc3)cc2)C(=O)O1` 0.5

Give recorded MIC with Staphylococcus aureus for the following compound: `CC(=O)NC[C@H]1CN(c2ccc(-c3ccc(C(C)=NOCC(=O)O)cc3)cc2)C(=O)O1` 8

Give recorded MIC with Staphylococcus aureus for the following compound: CC(=O)NC[C@H]1CN(c2ccc(-c3ccc([S+](C)[O-])cc3)cc2)C(=O)O1 (single isomer, unassigned) 0.25

Give recorded MIC with Staphylococcus aureus for the following compound: `CC(=O)NC[C@H]1CN(c2ccc(-c3csc(C)n3)cc2)C(=O)O1` 4

###

// each record: one item and its MIC for Staphylococcus aureus

Please review the following examples before continuing.
* CC(=O)NC[C@H]1CN(c2ccc(-c3ccncc3)cc2)C(=O)O1 | < 0.13 µg/mL
* CCCCCCCCN=Cc1ccc(-c2ccc(N3C[C@H](CNC(C)=O)OC3=O)cc2)cc1 | < 0.13 µg/mL

Please turn your attention to the following entry.
Data request, read-out MIC, for `CC(=O)NC[C@H]1CN(c2ccc(-c3csc(N)n3)cc2)C(=O)O1` 8 µg/mL
